Tested on: NCI-H358
Run Description: combination cScore with adagrasib (Bliss gap around IC50) (%PoC); higher = stronger additive effect
// label = criterion met if combination cScore with adagrasib is not less than 0.6, otherwise criterion not met

- Compound: "O=C(c1c(F)ccc(NS(=O)(=O)N2CC[C@@H](F)C2)c1F)c1c[nH]c2ncc(-c3cnc(C4CC4)nc3)cc12 [PLX8394] + C=C(F)C(=O)N1CCN(c2nc(OC[C@@H]3CCCN3C)nc3c2CCN(c2cccc4cccc(Cl)c24)C3)C[C@@H]1CC#N"
  Group: "criterion not met"
- Compound: "Cc1ccc(C(=O)Nc2ccc(CN3CCN(C)CC3)c(C(F)(F)F)c2)cc1C#Cc1cnc2cccnn12 [Ponatinib] + C=C(F)C(=O)N1CCN(c2nc(OC[C@@H]3CCCN3C)nc3c2CCN(c2cccc4cccc(Cl)c24)C3)C[C@@H]1CC#N"
  Group: "criterion met"
- Compound: "O=C(C1CC1)N1CC[C@@H](Cn2c(-c3ccc(-c4ccc5occc5c4)cc3)nc3cnccc32)C1 + C=C(F)C(=O)N1CCN(c2nc(OC[C@@H]3CCCN3C)nc3c2CCN(c2cccc4cccc(Cl)c24)C3)C[C@@H]1CC#N"
  Group: "criterion met"
- Compound: "Cc1c(N)nc([C@H](CC(N)=O)NC[C@H](N)C(N)=O)nc1C(=O)N[C@H](C(=O)N[C@H](C)[C@@H](O)[C@H](C)C(=O)N[C@H](C(=O)NCCc1nc(-c2nc(C(=O)NCCC[S+](C)C)cs2)cs1)[C@@H](C)O)[C@@H](OC1OC(CO)C(O)C(O)C1OC1OC(CO)C(O)C(OC(N)=O)C1O)c1cnc[nH]1 (some centres not stated) [Bleomycin] + C=C(F)C(=O)N1CCN(c2nc(OC[C@@H]3CCCN3C)nc3c2CCN(c2cccc4cccc(Cl)c24)C3)C[C@@H]1CC#N"
  Group: "criterion not met"
- Compound: "CC(C)C[C@H](NC(=O)[C@H](Cc1ccccc1)NC(=O)c1cnccn1)B(O)O [Bortezomib] + C=C(F)C(=O)N1CCN(c2nc(OC[C@@H]3CCCN3C)nc3c2CCN(c2cccc4cccc(Cl)c24)C3)C[C@@H]1CC#N"
  Group: "criterion not met"
- Compound: "CC/C(=C(\\c1ccccc1)c1ccc(OCCN(C)C)cc1)c1ccccc1 [Tamoxifen] + C=C(F)C(=O)N1CCN(c2nc(OC[C@@H]3CCCN3C)nc3c2CCN(c2cccc4cccc(Cl)c24)C3)C[C@@H]1CC#N"
  Group: "criterion met"

Task: Given the entry CC(C)N(CCCNC(=O)Nc1ccc(C(C)(C)C)cc1)C[C@H]1O[C@@H](n2ccc3c(N)ncnc32)[C@H](O)[C@@H]1O + C=C(F)C(=O)N1CCN(c2nc(OC[C@@H]3CCCN3C)nc3c2CCN(c2cccc4cccc(Cl)c24)C3)C[C@@H]1CC#N , answer whether its combination cScore with adagrasib meets or surpasses 0.6.
Result: criterion met

###

System: NCI-H2122
Run Description: combination cScore with sotorasib (Bliss gap around IC50) (%PoC); higher = stronger additive effect
// label = 1 if combination cScore with sotorasib is not less than 10, otherwise 0

- Compound: "O=C(c1ccc(F)c(F)c1Nc1ccc(I)cc1F)N1CC(O)([C@@H]2CCCCN2)C1 [Cobimetinib] + C=CC(=O)N1CCN(c2nc(=O)n(-c3c(C)ccnc3C(C)C)c3nc(-c4c(O)cccc4F)c(F)cc23)[C@@H](C)C1"
  Group: 0
- Compound: "CCN(CCCOc1ccc2c(Nc3cc(CC(=O)Nc4cccc(F)c4)[nH]n3)ncnc2c1)CCOP(=O)(O)O [AZD-1152] + C=CC(=O)N1CCN(c2nc(=O)n(-c3c(C)ccnc3C(C)C)c3nc(-c4c(O)cccc4F)c(F)cc23)[C@@H](C)C1"
  Group: 1
- Compound: "CS(=O)(=O)CCNCc1ccc(-c2ccc3ncnc(Nc4ccc(OCc5cccc(F)c5)c(Cl)c4)c3c2)o1 [Lapatinib] + C=CC(=O)N1CCN(c2nc(=O)n(-c3c(C)ccnc3C(C)C)c3nc(-c4c(O)cccc4F)c(F)cc23)[C@@H](C)C1"
  Group: 1
- Compound: "CCS(=O)(=O)Nc1ccc2c(c1)/C(=C(/Nc1ccc(CN3CCCCC3)cc1)c1ccccc1)C(=O)N2 [Hesperadin] + C=CC(=O)N1CCN(c2nc(=O)n(-c3c(C)ccnc3C(C)C)c3nc(-c4c(O)cccc4F)c(F)cc23)[C@@H](C)C1"
  Group: 1
- Compound: "CN1CC[C@H](c2c(O)cc(O)c3c(=O)cc(-c4ccccc4Cl)oc23)[C@H](O)C1 [Flavopiridol] + C=CC(=O)N1CCN(c2nc(=O)n(-c3c(C)ccnc3C(C)C)c3nc(-c4c(O)cccc4F)c(F)cc23)[C@@H](C)C1"
  Group: 0
- Compound: "O=C1c2c(O)ccc(O)c2C(=O)c2c(NCCNCCO)ccc(NCCNCCO)c21 [Mitoxantrone] + C=CC(=O)N1CCN(c2nc(=O)n(-c3c(C)ccnc3C(C)C)c3nc(-c4c(O)cccc4F)c(F)cc23)[C@@H](C)C1"
  Group: 1
- Compound: "C=CC(=O)N1CCC[C@@H](n2nc(-c3ccc(Oc4ccccc4)cc3)c3c(N)ncnc32)C1 [Ibrutinib] + C=CC(=O)N1CCN(c2nc(=O)n(-c3c(C)ccnc3C(C)C)c3nc(-c4c(O)cccc4F)c(F)cc23)[C@@H](C)C1"
  Group: 1

We now examine a further compound.
Task: Given the entry O=C(O)CNC(=O)c1c(O)c2ccccc2n(Cc2ccccc2)c1=O [IOX2] + C=CC(=O)N1CCN(c2nc(=O)n(-c3c(C)ccnc3C(C)C)c3nc(-c4c(O)cccc4F)c(F)cc23)[C@@H](C)C1 , answer whether its combination cScore with sotorasib meets or surpasses 10.
Result: 1
